These data points were gathered from the supplement of paper PMC9112550.

Test system: Escherichia coli TOP10;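 also: peptides expressed intracellularly from a pBAD plasmid library in pooled LB shake-flask culture, induced with 0.3% L-arabinose, DNA abundance read by NGS, three biological replicates, DESeq2 with apeglm shrinkage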
Experiment: shrunken log2 fold change of peptide-encoding DNA abundance (4.5 h post-induction vs induction); higher = less antimicrobial activity (less host growth inhibition)
Details: time post-induction: 4.5 h; library: site-saturation at positions 5, 18, 19, 20
measuredQuantity: shrunken log2 fold change

// shrunken log2 fold change lookup, key: RRIRARPPRLPRPRPRPSNMPRP
-0.28

// shrunken log2 fold change lookup, key: RRIRERPPRLPRPRPRPENNPRP
-0.27

// shrunken log2 fold change lookup, key: RRIRERPPRLPRPRPRPAGNPRP
-0.0376

// shrunken log2 fold change lookup, key: RRIRRRPPRLPRPRPRPTCPPRP
0.415

// shrunken log2 fold change lookup, key: RRIRGRPPRLPRPRPRPTWPPRP
0.52

// shrunken log2 fold change lookup, key: RRIRSRPPRLPRPRPRPKLWPRP
0.564

// shrunken log2 fold change lookup, key: RRIRCRPPRLPRPRPRPNHGPRP
-0.746

// shrunken log2 fold change lookup, key: RRIRLRPPRLPRPRPRPHSWPRP
0.0861

// shrunken log2 fold change lookup, key: RRIRPRPPRLPRPRPRPYGMPRP
-0.155

// shrunken log2 fold change lookup, key: RRIRFRPPRLPRPRPRPNVYPRP
-0.558

// shrunken log2 fold change lookup, key: RRIRHRPPRLPRPRPRPHSGPRP
-0.487

// shrunken log2 fold change lookup, key: RRIRLRPPRLPRPRPRPSEFPRP
-0.855

// shrunken log2 fold change lookup, key: RRIRKRPPRLPRPRPRPFYIPRP
-0.44

// shrunken log2 fold change lookup, key: RRIRARPPRLPRPRPRPQHMPRP
-0.414

// shrunken log2 fold change lookup, key: RRIRERPPRLPRPRPRPLRFPRP
0.493

// shrunken log2 fold change lookup, key: RRIRFRPPRLPRPRPRPYYVPRP
-0.14

// shrunken log2 fold change lookup, key: RRIRDRPPRLPRPRPRPLKYPRP
-0.529

// shrunken log2 fold change lookup, key: RRIRWRPPRLPRPRPRPRDAPRP
0.632

// shrunken log2 fold change lookup, key: RRIRWRPPRLPRPRPRPVFTPRP
0.0746

// shrunken log2 fold change lookup, key: RRIRPRPPRLPRPRPRPICWPRP
0.0407

// shrunken log2 fold change lookup, key: RRIRHRPPRLPRPRPRPPREPRP
0.204

// shrunken log2 fold change lookup, key: RRIRLRPPRLPRPRPRPTCCPRP
-0.013

// shrunken log2 fold change lookup, key: RRIRCRPPRLPRPRPRPRDQPRP
0.278

// shrunken log2 fold change lookup, key: RRIRMRPPRLPRPRPRPISWPRP
0.109

// shrunken log2 fold change lookup, key: RRIRWRPPRLPRPRPRPKCWPRP
0.467

// shrunken log2 fold change lookup, key: RRIRKRPPRLPRPRPRPGCIPRP
0.424

// shrunken log2 fold change lookup, key: RRIRIRPPRLPRPRPRPHATPRP
-0.0163

// shrunken log2 fold change lookup, key: RRIRWRPPRLPRPRPRPCCPPRP
-0.206

// shrunken log2 fold change lookup, key: RRIRCRPPRLPRPRPRPKKNPRP
0.24

// shrunken log2 fold change lookup, key: RRIRHRPPRLPRPRPRPGPWPRP
0.166

// shrunken log2 fold change lookup, key: RRIRSRPPRLPRPRPRPAMSPRP
-0.0932

// shrunken log2 fold change lookup, key: RRIRMRPPRLPRPRPRPPIHPRP
0.166
